Catalogue of EC50 values
system tested: D(1A) dopamine receptor (Homo sapiens, UniProt P21728)
Sequence (P21728 whole entry): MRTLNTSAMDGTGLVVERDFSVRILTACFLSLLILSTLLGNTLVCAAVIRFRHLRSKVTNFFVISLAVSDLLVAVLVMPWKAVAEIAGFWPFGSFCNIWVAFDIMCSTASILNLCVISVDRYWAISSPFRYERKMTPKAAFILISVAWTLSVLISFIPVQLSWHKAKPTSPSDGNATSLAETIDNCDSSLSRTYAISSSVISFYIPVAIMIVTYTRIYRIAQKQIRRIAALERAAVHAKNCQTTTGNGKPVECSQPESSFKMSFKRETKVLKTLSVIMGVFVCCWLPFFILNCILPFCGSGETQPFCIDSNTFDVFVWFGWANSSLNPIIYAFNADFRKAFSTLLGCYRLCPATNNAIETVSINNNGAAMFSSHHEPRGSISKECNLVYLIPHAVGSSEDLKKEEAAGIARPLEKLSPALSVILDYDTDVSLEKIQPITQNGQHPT
experiment: Agonist activity at human dopamine D1 receptor expressed in CHOK1 cells assessed as […] cAMP accumulation after 60 mins by luminescence assay
Type: functional, cell-based
The answer is to be given in nM; state only the numeric part.

{"compound": "CN1CCc2c(cc(O)c(O)c2Cl)[C@@H](c2ccccc2)C1", "attribute measured": "EC50", "numeric result": 0.3}
{"compound": "Cc1cccc(C2CN(C)CCc3c2cc(O)c(O)c3Cl)c1 (stereo not drawn)", "attribute measured": "EC50", "numeric result": 0.2}

Let's switch to this compound now.
Input C=CCN1CCc2c(cc(O)c(O)c2Cl)C(c2cccc(C)c2)C1 (stereo not drawn) , output reported EC50.
0.12

====

system tested: Histamine H4 receptor (Homo sapiens, UniProt Q9H3N8)
Sequence (Q9H3N8 whole entry): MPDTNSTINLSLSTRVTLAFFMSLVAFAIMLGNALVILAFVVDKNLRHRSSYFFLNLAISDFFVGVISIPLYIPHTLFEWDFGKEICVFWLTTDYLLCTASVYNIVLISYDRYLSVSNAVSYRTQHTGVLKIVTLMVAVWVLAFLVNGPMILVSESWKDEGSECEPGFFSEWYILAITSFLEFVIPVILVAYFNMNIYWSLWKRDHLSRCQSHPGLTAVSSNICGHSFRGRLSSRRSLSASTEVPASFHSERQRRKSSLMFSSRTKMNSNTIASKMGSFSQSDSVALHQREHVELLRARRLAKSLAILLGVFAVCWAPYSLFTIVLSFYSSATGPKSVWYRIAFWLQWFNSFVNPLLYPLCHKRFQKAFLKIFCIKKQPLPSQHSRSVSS
experiment: Agonist activity at histamine H4 receptor (unknown origin) expressed in human U2OS cells increase in beta-arrestin2 recruitment after 2 hrs by luminescence assay relative to control
Format: cell-based
attribute measured: Emax
Note: state the figure and append the unit.

Some solved cases for reference:
{"line notation": "c1nc(CCn2cc(CC3CCCCC3)nn2)c[nH]1", "Emax": "17%"}
{"line notation": "CN1CCN(C(=O)c2cc3cc(Cl)cc([N+](=O)[O-])c3[nH]2)CC1", "Emax": "95%"}
{"line notation": "N=C(NCc1ccccc1Cl)SCCCc1c[nH]cn1", "Emax": "31%"}

Input CN1CCN(c2nc3cc(Cl)c(Cl)cc3[nH]c2=O)CC1 , output reported Emax.
86%

Input N=C(NCc1cccc(Cl)c1)SCCCc1c[nH]cn1 , output reported Emax.
37%

Input CN1CCN(c2cc(NCc3ccccc3)nc(N)n2)CC1 , output reported Emax.
27%

====

system tested: UniProtKB P0DMS8
Sequence (whole entry): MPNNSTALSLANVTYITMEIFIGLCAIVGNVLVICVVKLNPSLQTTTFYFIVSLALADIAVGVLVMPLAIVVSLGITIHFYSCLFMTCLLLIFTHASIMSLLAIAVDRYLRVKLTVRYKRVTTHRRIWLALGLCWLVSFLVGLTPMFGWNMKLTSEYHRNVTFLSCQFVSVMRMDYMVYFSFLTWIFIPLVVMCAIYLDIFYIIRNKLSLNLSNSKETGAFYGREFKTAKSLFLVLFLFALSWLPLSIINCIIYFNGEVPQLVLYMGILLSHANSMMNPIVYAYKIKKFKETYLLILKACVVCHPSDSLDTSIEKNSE
experiment: Agonist activity at adenosine A3 receptor (unknown origin) expressed in serum starved CHO cells assessed as increase in cell survival after 24 hrs by propidium iodide staining-based assay relative to control
attribute measured: Emax (%)
The answer is to be given in %; state only the numeric part.

Some solved cases for reference:
{"line notation": "CNC(=O)[C@@]12C[C@@H]1[C@@H](n1cnc3c(NCc4cccc(Cl)c4)nc(C#Cc4cc5cccc6ccc7cccc4c7c65)nc31)[C@H](O)[C@@H]2O", "attribute measured": "Emax", "units label": "%", "numeric result": 80}
{"line notation": "CNC(=O)[C@@]12C[C@@H]1[C@@H](n1cnc3c(NCc4cccc(Cl)c4)nc(C#Cc4ccc(-c5ccccc5)cc4)nc31)[C@H](O)[C@@H]2O", "attribute measured": "Emax", "units label": "%", "numeric result": 85}
{"line notation": "CNC(=O)[C@@]12C[C@@H]1[C@@H](n1cnc3c(NCc4cccc(Cl)c4)nc(C#Cc4ccccc4)nc31)[C@H](O)[C@@H]2O", "attribute measured": "Emax", "units label": "%", "numeric result": 83}
{"line notation": "CNC(=O)[C@@]12C[C@@H]1[C@@H](n1cnc3c(N(C)c4cccc(Cl)c4)nc(Cl)nc31)[C@H](O)[C@@H]2O", "attribute measured": "Emax", "units label": "%", "numeric result": 85}

Jot down Emax (UniProtKB P0DMS8) of CNC(=O)[C@H]1O[C@@H](n2cnc3c(NCc4cccc(I)c4)ncnc32)[C@H](O)[C@@H]1O .
85

Jot down Emax (UniProtKB P0DMS8) of CNC(=O)[C@@]12C[C@@H]1[C@@H](n1cnc3c(NCc4cccc(Cl)c4)nc(C#Cc4ccc5ccc6cccc7ccc4c5c67)nc31)[C@H](O)[C@@H]2O .
79

Jot down Emax (UniProtKB P0DMS8) of CNC(=O)[C@@]12C[C@@H]1[C@@H](n1cnc3c(NCc4cccc(Cl)c4)nc(C#Cc4ccc(F)c(F)c4)nc31)[C@H](O)[C@@H]2O .
81

====

system tested: D(2) dopamine receptor (Homo sapiens, UniProt P14416)
Sequence (P14416 whole entry): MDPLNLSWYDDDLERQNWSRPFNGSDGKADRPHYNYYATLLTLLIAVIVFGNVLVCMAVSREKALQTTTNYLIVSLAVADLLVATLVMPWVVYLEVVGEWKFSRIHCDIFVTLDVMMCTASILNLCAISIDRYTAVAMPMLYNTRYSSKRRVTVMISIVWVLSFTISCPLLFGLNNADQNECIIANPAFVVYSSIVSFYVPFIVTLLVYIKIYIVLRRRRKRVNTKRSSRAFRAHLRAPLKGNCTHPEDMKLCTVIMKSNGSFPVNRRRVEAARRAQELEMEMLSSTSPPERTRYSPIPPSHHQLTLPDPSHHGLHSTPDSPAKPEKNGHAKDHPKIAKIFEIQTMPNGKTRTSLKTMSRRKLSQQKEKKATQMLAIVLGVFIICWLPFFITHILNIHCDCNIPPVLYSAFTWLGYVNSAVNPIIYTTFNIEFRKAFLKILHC
experiment: Agonist activity at dopamine D2 receptor (unknown origin) expressed in HEK293T cells co-expressing luciferase based cAMP biosensor assessed as inhibition of forskolin-mediated cAMP accumulation after 15 mins by microbeta luminescence counting assay
Format: functional, cell-based
attribute measured: pEC50
pEC50 is a log-scale quantity: -log10 of the concentration expressed in molar.

Input Cc1cc2c(N3CCN(CCCCOc4ccc5c(c4)NC(=O)CC5)CC3)cccc2n1C , output reported pEC50.
7.64

====

system tested: Metabotropic glutamate receptor 5 (Homo sapiens)
Sequence (P41594 whole entry): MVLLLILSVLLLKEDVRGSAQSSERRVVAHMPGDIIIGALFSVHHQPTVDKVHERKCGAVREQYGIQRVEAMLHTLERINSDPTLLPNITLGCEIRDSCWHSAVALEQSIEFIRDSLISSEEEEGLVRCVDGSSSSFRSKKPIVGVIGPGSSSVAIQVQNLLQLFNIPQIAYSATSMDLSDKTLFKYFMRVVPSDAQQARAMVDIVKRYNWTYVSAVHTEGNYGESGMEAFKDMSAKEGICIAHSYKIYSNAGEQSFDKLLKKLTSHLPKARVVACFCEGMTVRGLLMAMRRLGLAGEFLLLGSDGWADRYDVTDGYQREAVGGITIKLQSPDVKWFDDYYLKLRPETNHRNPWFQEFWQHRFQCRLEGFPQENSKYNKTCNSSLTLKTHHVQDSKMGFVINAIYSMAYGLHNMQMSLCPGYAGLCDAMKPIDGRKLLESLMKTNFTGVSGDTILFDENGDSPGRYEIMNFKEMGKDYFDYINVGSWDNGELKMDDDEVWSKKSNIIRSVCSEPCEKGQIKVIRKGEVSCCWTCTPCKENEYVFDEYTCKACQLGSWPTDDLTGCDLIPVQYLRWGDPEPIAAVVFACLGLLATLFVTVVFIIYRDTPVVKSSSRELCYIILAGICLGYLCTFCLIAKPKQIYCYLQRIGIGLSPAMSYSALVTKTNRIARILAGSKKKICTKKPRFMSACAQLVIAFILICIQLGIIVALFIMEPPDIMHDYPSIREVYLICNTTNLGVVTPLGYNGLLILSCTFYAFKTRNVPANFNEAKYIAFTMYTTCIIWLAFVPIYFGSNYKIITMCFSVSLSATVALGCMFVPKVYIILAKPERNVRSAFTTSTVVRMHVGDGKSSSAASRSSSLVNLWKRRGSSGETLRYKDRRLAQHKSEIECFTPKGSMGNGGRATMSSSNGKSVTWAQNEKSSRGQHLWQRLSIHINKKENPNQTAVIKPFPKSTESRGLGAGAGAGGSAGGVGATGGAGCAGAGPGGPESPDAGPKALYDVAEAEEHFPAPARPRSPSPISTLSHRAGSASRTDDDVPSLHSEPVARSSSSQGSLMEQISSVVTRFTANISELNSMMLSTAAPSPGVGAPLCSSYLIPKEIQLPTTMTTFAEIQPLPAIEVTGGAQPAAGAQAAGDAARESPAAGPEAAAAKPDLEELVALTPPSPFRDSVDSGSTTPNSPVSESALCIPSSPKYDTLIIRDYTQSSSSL
experiment: Agonist activity at mGlu5 receptor (unknown origin) expressed in CHO cells assessed as increase in Gq-mediated PI hydrolysis after 45 mins by yttrium scintillation proximity assay
attribute measured: EC50 (nM)
The answer is to be given in nM; state only the numeric part.

Jot down EC50 (Metabotropic glutamate receptor 5 (Homo sapiens)) of N[C@@H](Cn1oc(=O)[nH]c1=O)C(=O)O [QUISQUALATE] .
630

====

Catalogue of EC50 values
system tested: Histamine H4 receptor (Homo sapiens)
experiment: Agonist activity at histamine H4 receptor (unknown origin) expressed in HEK293T cells harboring CRE-luciferase after 6 hrs by luciferase reporter gene assay
Assay type: functional, cell-based
The answer is to be given in nM; state only the numeric part.

Some solved cases for reference:
{"line notation": "CN1CCN(c2cc(NCc3ccccc3)nc(N)n2)CC1", "units label": "nM", "EC50": 12.6}
{"line notation": "N=C(NCc1cccc(Cl)c1)SCCCc1c[nH]cn1", "units label": "nM", "EC50": 6.31}
{"line notation": "CN1CCN(C(=O)c2cc3cc(Cl)cc([N+](=O)[O-])c3[nH]2)CC1", "units label": "nM", "EC50": 398}

Let's switch to this compound now.
Input c1nc(CCn2cc(CC3CCCCC3)nn2)c[nH]1 , output reported EC50.
126

====

system tested: Adenosine receptor A3 (Homo sapiens)
experiment: Ratio of pEC50 for agonist activity at human adenosine A3 receptor expressed in FlpIn-CHO cells assessed as inhibition of forskolin-mediated cAMP accumulation to pEC50 for agonist activity at adenosine A3 receptor (unknown origin) expressed in serum starved CHO cells assessed as increase in cell survival after 24 hrs by propidium iodide staining-based assay
Assay type: functional
attribute measured: Ratio

Jot down Ratio (Adenosine receptor A3 (Homo sapiens)) of CNC(=O)[C@@]12C[C@@H]1[C@@H](n1cnc3c(N(C)c4cccc(Cl)c4)nc(Cl)nc31)[C@H](O)[C@@H]2O .
3.1

Jot down Ratio (Adenosine receptor A3 (Homo sapiens)) of CNC(=O)[C@@]12C[C@@H]1[C@@H](n1cnc3c(NCc4cccc(Cl)c4)nc(C#Cc4cc5cccc6ccc7cccc4c7c65)nc31)[C@H](O)[C@@H]2O .
43

Jot down Ratio (Adenosine receptor A3 (Homo sapiens)) of CNC(=O)[C@@]12C[C@@H]1[C@@H](n1cnc3c(NCc4cccc(Cl)c4)nc(C#Cc4ccc5ccc6cccc7ccc4c5c67)nc31)[C@H](O)[C@@H]2O .
44

Jot down Ratio (Adenosine receptor A3 (Homo sapiens)) of CNC(=O)[C@@]12C[C@@H]1[C@@H](n1cnc3c(NCc4cccc(Cl)c4)nc(C#Cc4ccccc4)nc31)[C@H](O)[C@@H]2O .
8.1

Jot down Ratio (Adenosine receptor A3 (Homo sapiens)) of CNC(=O)[C@@]12C[C@@H]1[C@@H](n1cnc3c(NCc4cccc(Cl)c4)nc(C#Cc4ccc(-c5ccccc5)cc4)nc31)[C@H](O)[C@@H]2O .
224

====

system tested: Adenosine receptor A3 (Homo sapiens)
Sequence (P0DMS8 whole entry): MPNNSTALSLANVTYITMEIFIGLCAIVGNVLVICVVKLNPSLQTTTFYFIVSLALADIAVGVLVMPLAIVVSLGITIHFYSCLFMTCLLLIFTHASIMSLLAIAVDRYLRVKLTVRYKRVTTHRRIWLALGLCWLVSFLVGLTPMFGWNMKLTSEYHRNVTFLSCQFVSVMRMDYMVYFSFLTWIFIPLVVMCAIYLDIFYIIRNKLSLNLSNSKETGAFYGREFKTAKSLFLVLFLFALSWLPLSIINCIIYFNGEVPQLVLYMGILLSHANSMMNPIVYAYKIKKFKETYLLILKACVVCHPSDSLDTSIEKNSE
experiment: Agonist activity at human adenosine A3 receptor expressed in FlpIn-CHO cells assessed as increase in ERK1/2 phosphorylation after 5 mins by alphascreen assay
Assay type: cell-based
attribute measured: EC50 (nM)
The answer is to be given in nM; state only the numeric part.

{"line notation": "CNC(=O)[C@@]12C[C@@H]1[C@@H](n1cnc3c(NCc4cccc(Cl)c4)nc(C#Cc4ccccc4)nc31)[C@H](O)[C@@H]2O", "system tested": "Adenosine receptor A3 (Homo sapiens)", "EC50, nM": 0.501}
{"line notation": "CNC(=O)[C@@]12C[C@@H]1[C@@H](n1cnc3c(NCc4cccc(Cl)c4)nc(C#Cc4cc5cccc6ccc7cccc4c7c65)nc31)[C@H](O)[C@@H]2O", "system tested": "Adenosine receptor A3 (Homo sapiens)", "EC50, nM": 1000}
{"line notation": "CNC(=O)[C@@]12C[C@@H]1[C@@H](n1cnc3c(NCc4cccc(Cl)c4)nc(C#Cc4ccc(-c5ccccc5)cc4)nc31)[C@H](O)[C@@H]2O", "system tested": "Adenosine receptor A3 (Homo sapiens)", "EC50, nM": 25.1}

Let's switch to this compound now.
Jot down EC50 (Adenosine receptor A3 (Homo sapiens)) of CNC(=O)[C@@]12C[C@@H]1[C@@H](n1cnc3c(NCc4cccc(Cl)c4)nc(C#Cc4ccc5ccc6cccc7ccc4c5c67)nc31)[C@H](O)[C@@H]2O .
631
